Measured pKi accompanies every entry in the list below.
- tgt: GRP receptor (Rattus norvegicus, UniProt P52500)
- Sequence (P52500 whole entry): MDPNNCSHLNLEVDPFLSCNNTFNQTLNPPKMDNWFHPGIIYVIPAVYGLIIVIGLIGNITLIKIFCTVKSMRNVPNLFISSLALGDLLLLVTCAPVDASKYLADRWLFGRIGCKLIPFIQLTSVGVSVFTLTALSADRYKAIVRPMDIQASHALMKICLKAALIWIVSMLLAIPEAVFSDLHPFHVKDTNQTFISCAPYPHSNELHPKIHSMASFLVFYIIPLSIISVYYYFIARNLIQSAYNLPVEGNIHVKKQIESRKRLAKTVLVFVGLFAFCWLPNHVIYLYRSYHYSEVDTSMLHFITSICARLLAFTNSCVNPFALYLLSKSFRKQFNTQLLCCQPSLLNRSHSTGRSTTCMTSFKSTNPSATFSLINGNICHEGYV
- method.description: GRP membrane receptor assay, 125I-[Tyr4]Bn, AR 42J cell membranes
- measurement.context: read-out: affinity, 125I-[Tyr4]Bn, AR 42J Cell Membranes (GRP receptors); Cheng method; unit inferred
Where a SMILES comes first, the peptide text is derived from it. Bridges are numbered along the chain shown (N, C = ends). [ ]: non-standard residue; d: D form. 2Nal = N[C@@H](Cc1ccc2ccccc2c1)C(=O)O; d2Nal = N[C@H](Cc1ccc2ccccc2c1)C(=O)O
Reminder that pKi means the negative base-10 logarithm of the concentration expressed in mol/L.

Example molecules with recorded pKi:
| molecule | observed.value |
| --- | --- |
| C[C@@H](O)[C@@H]1NC(=O)[C@H](CCCCN)NC(=O)[C@@H](Cc2c[nH]c3ccccc23)NC(=O)[C@H](Cc2ccc(O)cc2)NC(=O)[C@@H](NC(=O)[C@H](N)Cc2ccccc2)CSSC[C@@H](C(=O)N[C@@H](Cc2ccc3ccccc3c2)C(N)=O)NC1=O [Analog #7] (H-[dF]CY[dW]KTC[2Nal]-NH2; disulfide 2-7) | 6.12 |
| CC(C)[C@@H]1NC(=O)[C@H](CCCCN)NC(=O)[C@@H](Cc2ccc3ccccc3c2)NC(=O)[C@H](Cc2ccc(O)cc2)NC(=O)[C@@H](NC(=O)[C@H](N)Cc2ccc3ccccc3c2)CSSC[C@@H](C(=O)N[C@@H](Cc2ccc3ccccc3c2)C(N)=O)NC1=O [Analog #17] (H-[d2Nal]CY[d2Nal]KVC[2Nal]-NH2; disulfide 2-7) | 5.43 |
| CC(C)[C@@H]1NC(=O)[C@H](CCCCN)NC(=O)[C@@H](Cc2c[nH]c3ccccc23)NC(=O)[C@H](Cc2ccc(O)cc2)NC(=O)[C@@H](NC(=O)[C@@H](N)Cc2ccc3ccccc3c2)CSSC[C@@H](C(=O)N[C@H](Cc2ccc3ccccc3c2)C(N)=O)NC1=O [Analog #9] (H-[2Nal]CY[dW]KVC[d2Nal]-NH2; disulfide 2-7) | 5.81 |
| CC(C)[C@@H]1NC(=O)[C@H](CCCCN)NC(=O)[C@@H](Cc2c[nH]c3ccccc23)NC(=O)[C@H](Cc2ccc(O)cc2)NC(=O)[C@@H](NC(=O)[C@H](N)Cc2ccc3ccccc3c2)CSSC[C@@H](C(=O)N[C@H](Cc2ccc3ccccc3c2)C(N)=O)NC1=O [Analog #8] (H-[d2Nal]CY[dW]KVC[d2Nal]-NH2; disulfide 2-7) | 5.39 |
| CC(C)[C@@H]1NC(=O)[C@H](CCCCN)NC(=O)[C@@H](Cc2c[nH]c3ccccc23)NC(=O)[C@H](Cc2ccc(O)cc2)NC(=O)[C@@H](NC(=O)[C@H](N)Cc2ccc3ccccc3c2)CSSC[C@H](C(=O)N[C@@H](Cc2ccc3ccccc3c2)C(N)=O)NC1=O [Analog #11] (H-[d2Nal]CY[dW]KV[dC][2Nal]-NH2; disulfide 2-7) | 5.12 |

Shifting focus to the molecule that follows.
// pKi lookup, molecule = CC(C)[C@@H]1NC(=O)[C@H](CCCCN)NC(=O)[C@@H](Cc2c[nH]c3ccccc23)NC(=O)[C@H](Cc2ccc(O)cc2)NC(=O)[C@H](NC(=O)[C@H](N)Cc2ccc3ccccc3c2)CSSC[C@@H](C(=O)N[C@@H](Cc2ccc3ccccc3c2)C(N)=O)NC1=O [Analog #10] (H-[d2Nal][dC]Y[dW]KVC[2Nal]-NH2; disulfide 2-7) , result: 5.82
